- experimentNotes: modulators of S6 phosphorylation in cells, primary screen, cell-based, A549, cytoblot, luminescence, serum-stimulated (AID 1158);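 further: serum-stimulated A549 lung adenocarcinoma cells; signal is phosphorylated S6 detected by cytoblot immunostaining with HRP secondary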
- protocolConditions: A549 phospho-S6 cytoblot, 5 h, higher = more signal
Each entry below carries its reported z-score.
quantity: z-score

[[record]]
compound = "C=C(COC)C(=O)CC[C@H](OC(=O)c1ccccc1-c1ccccc1C(=O)O)c1ccccc1OCCO"
valuemeasured = -0.541

[[record]]
compound = "O=C1O[C@@H](c2ccccc2)[C@@H](c2ccccc2)N2[C@@H](c3ccc(OCCO)cc3)[C@]3(C(=O)Nc4ccc(C#CC5(O)CCCCCC5)cc43)[C@@H](C(=O)NC[C@H](O)c3ccccc3)[C@H]12"
valuemeasured = 1.13

[[record]]
compound = "O=C(O)[C@H]1C[C@H]2C(=O)N[C@@H](Cc3ccccc3)C(=O)N2[C@H]1c1ccc(O)cc1"
valuemeasured = 0.432

[[record]]
compound = "CC(C)(C)OC(=O)CC[C@@]12N=C(c3ccc(OCCCO)cc3)O[C@@H]1c1ccccc1N(Cc1ccccc1)C2=O"
valuemeasured = 0.497

[[record]]
compound = "C=C(CCCC)/C(=C/C[C@H](OC(=O)c1ccncc1)c1ccc(CO)o1)c1cnc2ccccc2c1"
valuemeasured = -0.367

[[record]]
compound = "COC(=O)C(CC#Cc1ccc2c(c1)[C@]1(C(=O)N2)[C@H](C(N)=O)[C@H]2C(=O)O[C@H](c3ccccc3)[C@H](c3ccccc3)N2[C@@H]1c1ccc(O)cc1)C(=O)OC"
valuemeasured = 0.331

[[record]]
compound = "CC(C)C[C@@H]1NC(=O)[C@@]23C(=O)N[C@@H](Cc4ccccc4)C2[C@H](C)[C@@]2(C)O[C@H]2C3/C=C/C/C=C\\CNC(=O)[C@H](Cc2ccccc2)NC1=O (some centres not stated)"
valuemeasured = 0.497


* * *

- experimentNotes: cell viability in Huh7 cells, primary screen, cytotoxicity control for HCV replication inhibitor project, CellTiter-Glo luminescence, basal, 48 h (AID 1143);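 further: Huh7 hepatoma cells carrying a hepatitis C replication reporter with no stimulus; test concentration not given here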
- protocolConditions: Huh7 HCV replicon, higher = more signal, called active from +8 up or from −8 down
Each entry below carries its reported z-score.
quantity: z-score

[[record]]
compound = "C=C(/C(=C/C[C@H](OC(C)=O)c1cccc(OCCO)c1)c1cc(C(=O)OC)ccc1OC)C(C)C"
valuemeasured = -0.802

[[record]]
compound = "C=CCN1C(=O)[C@@]2(O[C@@H](CCO)[C@H]([Si](C)(C)c3ccc(OC)cc3)[C@H]2C)c2cc(N3C(=O)c4cccc5cccc3c45)ccc21"
valuemeasured = -7.95

[[record]]
compound = "C=CCC(OC(C)=O)[C@@H]1[C@@H](N(Cc2ccc(-c3ccccc3)cc2)C(=O)c2ccc(-c3ccccc3)cc2)c2cc(OCCCO)ccc2N1C(=O)c1ccc(-c2ccccc2)cc1 (stereo partly specified)"
valuemeasured = 0.534

[[record]]
compound = "C=C(CCCC)/C(=C/C[C@@H](OC(=O)c1ccncc1)c1ccc(OCCO)cc1)c1cnc2ccccc2c1"
valuemeasured = -1.93

[[record]]
compound = "CC(C)(C)OC(=O)CC[C@]1(C(=O)NCc2ccccc2)N=C(c2ccc(OCCCO)cc2)O[C@H]1c1ccccc1N=[N+]=[N-]"
valuemeasured = -3.04

[[record]]
compound = "CC(C)NC(=O)[C@@H]1c2ccccc2C(=O)N(Cc2cc(F)cc(C(F)(F)F)c2)[C@H]1c1ccc(CO)cc1"
valuemeasured = 0.142

[[record]]
compound = "C=CCOC(=O)[C@H]1[C@@H]2C(=O)O[C@@H](c3ccccc3)[C@@H](c3ccccc3)N2[C@@H](c2ccc(OCCOC(=O)[C@H]3C[C@H]4C(=O)N5CCC[C@H]5C(=O)N4[C@H]3c3cccc(OCCO)c3)cc2)[C@]12C(=O)Nc1ccccc12"
valuemeasured = -2.03

[[record]]
compound = "C=CCC(OC(C)=O)[C@@H]1[C@@H](N(Cc2ccc(-c3cccc(C(F)(F)F)c3)o2)C(=O)c2ccc(-c3ccccc3)cc2)c2cc(OCCCO)ccc2N1C(=O)Cc1ccc(OC)cc1 (stereo partly specified)"
valuemeasured = -1.84

[[record]]
compound = "CCOC(=O)C[C@H]1[C@H](OC(=O)c2cc3ccccc3oc2=O)[C@@H](NC(=O)c2ccccc2)c2cc(OCCCO)ccc2N1C(=O)Cc1ccc(OC)cc1"
valuemeasured = -4.64

[[record]]
compound = "Cc1ccc(N2C(=O)c3ccccc3[C@](C)(C(=O)NC3CC3)[C@@H]2c2ccc(CO)cc2)nc1"
valuemeasured = 0.0401

[[record]]
compound = "CO[C@H]1O[C@H](CO)[C@@H](OC(=O)Nc2ccccc2)[C@H](OC(=O)Nc2ccccc2-c2ccccc2)[C@@H]1OC(=O)Nc1ccccc1-c1ccccc1"
valuemeasured = -5.22

[[record]]
compound = "Cc1ccc(S[C@]2(C(=O)NC3CC3)CC(=O)N(Cc3ccccc3C(F)(F)F)[C@@H]2c2ccc(CO)cc2I)cc1"
valuemeasured = -2.54

[[record]]
compound = "C=CC[C@@H](OC(=O)Nc1ccc(SC)cc1)c1ccc(OCCO)cc1"
valuemeasured = -0.89

[[record]]
compound = "CCCCCN1CC=CC23O[C@@H]4/C=C\\CCC(C)OC(=O)C4[C@H]2C(=O)N(CCO)[C@@H]3C1=O (stereo partly specified)"
valuemeasured = -0.989

[[record]]
compound = "C=C1C=C(Br)C2(OCCCO2)[C@H]2OC12 (stereo partly specified)"
valuemeasured = 0.15

[[record]]
compound = "COc1ccc([Si](C)(C)[C@H]2[C@H](CCO)O[C@@]3(C(=O)N(Cc4ccc(N5C(=O)c6cccc7cccc5c67)cc4)c4ccccc43)[C@@H]2C)cc1"
valuemeasured = -6.16

[[record]]
compound = "C=CCN1C(=O)[C@@]2(O[C@@H](CCO)[C@H]([Si](C)(C)c3ccc(OC)cc3)[C@H]2C)c2cc(N(C=O)c3ccccc3)ccc21"
valuemeasured = -7.99

[[record]]
compound = "NCCCCCCNC(=O)[C@@H]1C[C@@H]2C(=O)N[C@@H](Cc3ccccc3)C(=O)N2[C@@H]1c1ccc(O)cc1"
valuemeasured = -0.136

[[record]]
compound = "CC(C)[Si](C#C[Si](C(C)C)(C(C)C)C(C)C)(O[C@H](C)c1cn([C@H](C)c2ccccc2)nn1)C(C)C"
valuemeasured = -1.48

[[record]]
compound = "COc1ccc([Si](C)(C)[C@H]2[C@H](CC(=O)N3Cc4ccccc4C[C@H]3CO)O[C@@]3(C(=O)N(Cc4cccc(N5C(=O)COc6ccccc65)c4)c4ccccc43)[C@@H]2C)cc1"
valuemeasured = -3.87

[[record]]
compound = "C=C[C@H](OC)[C@@H](OC(=O)Nc1ccc(OC)cc1)c1ccc(OC)c(O)c1"
valuemeasured = -0.088

